target: kappa receptor (Mus musculus); construct: Five CF-1 male mice (Charles River, Portage, Mich.); from tissue; host or cells: whole living CF-1 male mice (in vivo); test: in vivo; set-up: species or system CF-1 male mice; conditions: sc, read-out: Kappa AD50
Sequence (P33534 whole entry): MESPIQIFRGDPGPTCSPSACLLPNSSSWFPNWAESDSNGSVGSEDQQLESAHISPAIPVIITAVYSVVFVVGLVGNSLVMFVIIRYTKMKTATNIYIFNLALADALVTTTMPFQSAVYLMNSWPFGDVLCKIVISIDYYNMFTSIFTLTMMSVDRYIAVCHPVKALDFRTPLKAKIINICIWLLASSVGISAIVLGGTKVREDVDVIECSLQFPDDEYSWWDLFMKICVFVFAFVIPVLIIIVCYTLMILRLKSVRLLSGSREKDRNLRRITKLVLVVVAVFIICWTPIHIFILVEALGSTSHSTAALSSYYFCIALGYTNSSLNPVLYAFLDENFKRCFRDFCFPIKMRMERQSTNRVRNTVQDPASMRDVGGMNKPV
Where a name gives a salt, the structure may show the parent alone.

# compound, ED50 [mg/kg]
measured = [
    ("CC1CN(CCc2cccs2)CCC1(C)c1cccc(O)c1 (stereo not shown) [Example 38, hydrochloride]", 0.25),
    ("COC(CCN1CC[C@@](C)(c2cccc(O)c2)[C@@H](C)C1)C1CCCCC1 (relative stereo) [Example 31, hydrochloride]", 0.44),
    ("CC1CN(CC2CCCCC2)CCC1(C)c1cccc(O)c1 (stereo not shown) [Example 10, hydrochloride]", 0.34),
    ("CCCCCN1CCC(C)(c2cccc(O)c2)C(C)C1 (stereo not shown) [Example 14, hydrochloride]", 0.6),
]

###

test system: meal fed obese Zucker rats; assay: Food consumption assay in meal fed obese Zucker rats; format: in vivo; details: Rattus norvegicus, sc, 4 h, amount to decrease food consumption 20% during first four hours
Counter-ions that a name gives are not always drawn.
Recorded log10 ED20, one value per entry.
quantity.kind: log10 ED20 (log10 of the value in mg/kg)

# compound, log10 ED20
records = [
    ("CC1CN(CC2CCCCC2)CCC1(C)c1cccc(O)c1 (stereo not shown) [Example 10, hydrochloride]", 0.10),
    ("C=C(C)CCCN1CCC(C)(c2cccc(O)c2)C(C)C1 (stereo not shown) [Example 3, hydrochloride]", -0.54),
    ("C[C@H]1CN(CCC(O)c2ccccc2)CC[C@@]1(C)c1cccc(O)c1 (relative stereo) [Compound A, hydrochloride, reference compound]", -0.26),
    ("C[C@H]1CN(CCc2ccccc2)CC[C@@]1(C)c1cccc(O)c1 (relative stereo) [Compound D, hydrochloride, reference compound]", -0.03),
    ("CC1CN(CCC2CCCCC2)CCC1(C)c1cccc(O)c1 (stereo not shown) [Example 13, hydrochloride]", 0.66),
    ("CCCCCN1CCC(C)(c2cccc(O)c2)C(C)C1 (stereo not shown) [Example 14, hydrochloride]", 0.65),
    ("C[C@H]1CN(CCC2C=CCC2)CC[C@@]1(C)c1cccc(O)c1 (relative stereo) [Example 7, hydrochloride]", -0.47),
]

###

target: mu receptor (Mus musculus, UniProt P42866); construct: Five CF-1 male mice (Charles River, Portage, Mich.); from tissue; host or cells: whole living CF-1 male mice (in vivo); assay: Mouse writhing assay, antagonism of morphine analgesia (mu); assay type: in vivo, CF-1 male mice; conditions: sc, read-out: Mu AD50
Sequence (P42866 whole entry): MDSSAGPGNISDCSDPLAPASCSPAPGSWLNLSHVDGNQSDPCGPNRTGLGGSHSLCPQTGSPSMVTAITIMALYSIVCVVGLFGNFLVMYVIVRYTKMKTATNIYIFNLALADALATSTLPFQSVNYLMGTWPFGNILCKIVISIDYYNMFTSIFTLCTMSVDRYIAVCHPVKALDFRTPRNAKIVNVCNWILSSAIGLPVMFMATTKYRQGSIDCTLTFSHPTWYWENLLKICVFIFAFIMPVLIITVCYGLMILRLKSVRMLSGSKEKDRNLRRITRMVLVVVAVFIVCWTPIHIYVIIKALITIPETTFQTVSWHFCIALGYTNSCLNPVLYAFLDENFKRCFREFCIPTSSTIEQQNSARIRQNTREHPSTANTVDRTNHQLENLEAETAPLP
Counter-ions that a name gives are not always drawn.
The entries below come with measured ED50 values attached.

# compound, unit.annotation, ED50
rows = [
    ("C[C@H]1CN(C)CC[C@@]1(C)c1cccc(O)c1 (relative stereo) [Compound B, hydrochloride, reference compound]", "mg/kg", 0.74),
    ("CCCCCCN1CCC(C)(c2cccc(O)c2)C(C)C1 (stereo not shown) [Example 22, hydrochloride]", "mg/kg", 0.05),
    ("C[C@H]1CN(CCC(O)c2ccccc2)CC[C@@]1(C)c1cccc(O)c1 (relative stereo) [Compound A, hydrochloride, reference compound]", "mg/kg", 0.05),
    ("CCCCCCN1CC[C@](C)(c2cccc(O)c2)[C@H](C)C1 (stereo in doubt) [Example 2, hydrochloride]", "mg/kg", 0.21),
    ("CC1CN(CCCc2cccs2)CCC1(C)c1cccc(O)c1 (stereo not shown) [Example 35, hydrochloride]", "mg/kg", 0.22),
    ("C[C@H]1CN(CC[C@H](O)C2CCCCC2)CC[C@@]1(C)c1cccc(O)c1 [Example 23]", "mg/kg", 0.01),
    ("CC1CN(CC2CCCCC2)CCC1(C)c1cccc(O)c1 (stereo not shown) [Example 10, hydrochloride]", "mg/kg", 0.46),
]
